Values were extracted from patent US9487511B2.

protocol details: Evaluation of blood cell number in mouse
Format: in vivo
test settings: male ICR mice, oral, repeated 7 or 9 days, 10 mg/kg
Structures can show the parent of a compound that is named as a salt.
Task for the reader: assign each of the following compounds its reported Red blood cells, Mean.

In: Give Red blood cells, Mean for Cc1nnc(NC(=O)c2cc([C@@H]3C[C@H]3NC3CCC3)c(C)s2)s1 [Example 99, hydrochloride]
Out: 915 10^4 cells

In: Give Red blood cells, Mean for O=C(NC1CCOCC1)c1csc([C@@H]2C[C@H]2NCC2CC2)c1 [Example 71, hydrochloride]
Out: 817 10^4 cells

In: Give Red blood cells, Mean for Cc1nnc(NC(=O)c2cc([C@@H]3C[C@H]3NCC3CC3)c(C)s2)s1 [Example 95, fumarate]
Out: 898 10^4 cells

In: Give Red blood cells, Mean for Cc1nnc(NC(=O)c2cc([C@@H]3C[C@H]3NCC3CCOCC3)c(C)s2)s1 [Example 97, hydrochloride]
Out: 890 10^4 cells

In: Give Red blood cells, Mean for Cc1nnc(NC(=O)c2cc([C@@H]3C[C@H]3NCC3CC3)cs2)s1 [Example 82, dihydrochloride]
Out: 926 10^4 cells

* * *

protocol details: Evaluation of hippocampal distribution in mouse
Type: in vivo
test settings: male, ICR, mouse, hippocampus, po, 10 mg/kg, male ICR mice, 10 mg/kg oral, 1 h after administration; read-out: Concentration Hippocampus, Mean
Where a name gives a salt, the structure may show the parent alone.
Task for the reader: assign each of the following molecules its reported concentration at 1 h.
Report the value in ng/g with no unit label.

In: Give concentration at 1 h for Cc1nnc(NC(=O)c2cc([C@@H]3C[C@H]3NC3CCC3)c(C)s2)s1 [Example 99, hydrochloride]
Out: 640

In: Give concentration at 1 h for O=C(NC1CCOCC1)c1csc([C@@H]2C[C@H]2NCC2CC2)c1 [Example 71, hydrochloride]
Out: 82

In: Give concentration at 1 h for Cc1nnc(NC(=O)c2cc([C@@H]3C[C@H]3NC3CCC3)cs2)s1 [Example 84, dihydrochloride]
Out: 177

In: Give concentration at 1 h for Cc1nnc(NC(=O)c2cc([C@@H]3C[C@H]3NCC3CC3)cs2)s1 [Example 82, dihydrochloride]
Out: 170

In: Give concentration at 1 h for Cc1nnc(NC(=O)c2cc([C@@H]3C[C@H]3NCC3CCOCC3)c(C)s2)s1 [Example 97, hydrochloride]
Out: 194

* * *

pIC50: −log10 of the molar value. Where a name gives a salt, the structure may show the parent alone.
Task for the reader: assign each of the following compounds its reported pIC50.

In: Send back MAO-B enzyme (Homo sapiens (Human), UniProt P27338) pIC50 of Cc1nnc(NC(=O)c2csc([C@@H]3C[C@H]3NC3CCOCC3)c2)s1 [Example 49, hydrochloride] only.
Out: < 4.00

In: Send back MAO-B enzyme (Homo sapiens (Human), UniProt P27338) pIC50 of Cc1nnc(NC(=O)c2cc([C@@H]3C[C@H]3NCC3CCOCC3)sc2C)s1 (relative stereo) [Example 70, dihydrochloride] only.
Out: 4.64

In: Send back MAO-B enzyme (Homo sapiens (Human), UniProt P27338) pIC50 of O=C(NC1CC1)c1csc([C@@H]2C[C@H]2NCC2CCOCC2)c1 [Example 56, hydrochloride] only.
Out: < 4.00

* * *

protocol details: Evaluation of blood cell number in mouse
Type: in vivo
test settings: male ICR mice, oral, repeated 7 or 9 days, 100 mg/kg
Where a name gives a salt, the structure may show the parent alone.
observed property: Platelets, Mean

In: Give Platelets, Mean for Cc1nnc(NC(=O)c2cc([C@@H]3C[C@H]3NCC3CC3)cs2)s1 [Example 82, dihydrochloride]
Out: 1411 10^3 cells

In: Give Platelets, Mean for Cc1sc(C(=O)Nc2cnn(C)c2)cc1[C@@H]1C[C@H]1NC1CCC1 [Example 123, hydrochloride]
Out: 1333 10^3 cells

In: Give Platelets, Mean for O=C(NC1CCOCC1)c1csc([C@@H]2C[C@H]2NCC2CC2)c1 [Example 71, hydrochloride]
Out: 1322 10^3 cells

In: Give Platelets, Mean for Cc1nnc(NC(=O)c2cc([C@@H]3C[C@H]3NCC3CCOCC3)c(C)s2)s1 [Example 97, hydrochloride]
Out: 1533 10^3 cells

In: Give Platelets, Mean for Cc1nnc(NC(=O)c2cc([C@@H]3C[C@H]3NC3CCC3)c(C)s2)s1 [Example 99, hydrochloride]
Out: 1519 10^3 cells

* * *

protocol details: Evaluation of hippocampal distribution in mouse
Assay type: in vivo
test settings: male, ICR, mouse, plasma, po, 10 mg/kg, male ICR mice, 10 mg/kg oral, 1 h after administration; read-out: Concentration Plasma, Mean
Counter-ions that a name gives are not always drawn.
Note to self: values exactly at 500 ng/mL are y. So concentration at 1 h at or above 500 ng/mL is y, below is n.

In: Determine whether this compound has concentration at 1 h no lower than 500 ng/mL: Cc1nnc(NC(=O)c2cc([C@@H]3C[C@H]3NCC3CC3)cs2)s1 [Example 82, dihydrochloride]
Out: y

In: Determine whether this compound has concentration at 1 h no lower than 500 ng/mL: O=C(NC1CCOCC1)c1csc([C@@H]2C[C@H]2NCC2CC2)c1 [Example 71, hydrochloride]
Out: n

In: Determine whether this compound has concentration at 1 h no lower than 500 ng/mL: Cc1nnc(NC(=O)c2cc([C@@H]3C[C@H]3NC3CCC3)c(C)s2)s1 [Example 99, hydrochloride]
Out: y

In: Determine whether this compound has concentration at 1 h no lower than 500 ng/mL: Cc1nnc(NC(=O)c2cc([C@@H]3C[C@H]3NCC3CCOCC3)c(C)s2)s1 [Example 97, hydrochloride]
Out: y

In: Determine whether this compound has concentration at 1 h no lower than 500 ng/mL: Cc1nnc(NC(=O)c2cc([C@@H]3C[C@H]3NC3CCC3)cs2)s1 [Example 84, dihydrochloride]
Out: y

* * *

Task for the reader: assign each of the following compounds its reported IC50.
test target: MAO-A enzyme (Homo sapiens (Human))
Sequence (P21397 whole entry): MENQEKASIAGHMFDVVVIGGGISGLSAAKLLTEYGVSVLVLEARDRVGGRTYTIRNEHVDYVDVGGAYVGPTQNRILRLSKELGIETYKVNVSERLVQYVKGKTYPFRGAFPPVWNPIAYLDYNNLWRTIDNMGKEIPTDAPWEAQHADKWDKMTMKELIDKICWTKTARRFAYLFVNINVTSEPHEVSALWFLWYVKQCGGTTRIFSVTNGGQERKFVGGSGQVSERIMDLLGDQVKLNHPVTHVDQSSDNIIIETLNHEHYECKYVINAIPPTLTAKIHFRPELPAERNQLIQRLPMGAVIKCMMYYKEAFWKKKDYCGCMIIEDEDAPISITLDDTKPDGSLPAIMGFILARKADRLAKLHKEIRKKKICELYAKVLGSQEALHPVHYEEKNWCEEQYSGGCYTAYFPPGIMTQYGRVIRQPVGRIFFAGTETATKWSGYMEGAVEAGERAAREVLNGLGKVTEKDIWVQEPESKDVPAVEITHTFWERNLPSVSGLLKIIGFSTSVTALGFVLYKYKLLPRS
protocol details: Measurement of MAO-A inhibitory activity (MAO-Glo Assay)
Format: biochemical
Where a name gives a salt, the structure may show the parent alone.

In: Send back MAO-A enzyme (Homo sapiens (Human)) IC50 of CC(=O)N1CCC(N[C@@H]2C[C@H]2c2cc(C(=O)NC3CCC(F)(F)CC3)cs2)CC1 [Example 91, hydrochloride] only.
Out: > 100 µM

In: Send back MAO-A enzyme (Homo sapiens (Human)) IC50 of Cc1ncc(NC(=O)c2csc([C@@H]3C[C@H]3NCC3CCOCC3)c2)s1 [Example 53, dihydrochloride] only.
Out: 61 µM

In: Send back MAO-A enzyme (Homo sapiens (Human)) IC50 of Cn1cc(NC(=O)c2csc([C@@H]3C[C@H]3NC3CCC3)c2)cn1 (relative stereo) [Example 34, hydrochloride] only.
Out: > 100 µM

In: Send back MAO-A enzyme (Homo sapiens (Human)) IC50 of O=C(NC1CCC(F)(F)CC1)c1csc([C@@H]2C[C@H]2NCC2CC2)c1 (relative stereo) [Example 30, hydrochloride] only.
Out: > 100 µM

In: Send back MAO-A enzyme (Homo sapiens (Human)) IC50 of Cc1nnc(NC(=O)c2cc([C@@H]3C[C@H]3NCC3CCOCC3)sc2C)s1 (relative stereo) [Example 70, dihydrochloride] only.
Out: 10 µM

In: Send back MAO-A enzyme (Homo sapiens (Human)) IC50 of Cc1ncc(NC(=O)c2csc([C@@H]3C[C@H]3NC3CCOCC3)c2)s1 [Example 50, hydrochloride] only.
Out: > 100 µM

In: Send back MAO-A enzyme (Homo sapiens (Human)) IC50 of Cc1sc([C@@H]2C[C@H]2NCC2CC2)cc1C(=O)NC1CCC(F)(F)CC1 (relative stereo) [Example 65, hydrochloride] only.
Out: 25 µM

In: Send back MAO-A enzyme (Homo sapiens (Human)) IC50 of O=C(NC1CCOCC1)c1csc([C@@H]2C[C@H]2NCC2CCC2)c1 [Example 112] only.
Out: > 100 µM

In: Send back MAO-A enzyme (Homo sapiens (Human)) IC50 of Cc1nnc(NC(=O)c2csc([C@@H]3C[C@H]3NC3CCOCC3)c2)s1 [Example 49, hydrochloride] only.
Out: > 100 µM

In: Send back MAO-A enzyme (Homo sapiens (Human)) IC50 of Cc1nnc(NC(=O)c2csc([C@@H]3C[C@H]3NC3CCN(C4CC4)CC3)c2)s1 [Example 48, dihydrochloride] only.
Out: 31 µM

In: Send back MAO-A enzyme (Homo sapiens (Human)) IC50 of O=C(NC1CCOCC1)c1csc([C@@H]2C[C@H]2NC2CCC(F)(F)CC2)c1 [Example 47, hydrochloride] only.
Out: > 100 µM

In: Send back MAO-A enzyme (Homo sapiens (Human)) IC50 of Cc1nnc(NC(=O)c2cc([C@@H]3C[C@H]3NCC3CCOCC3)cs2)s1 (relative stereo) [Example 58, hydrochloride] only.
Out: > 100 µM

In: Send back MAO-A enzyme (Homo sapiens (Human)) IC50 of O=C(NC1CCC(F)(F)CC1)c1csc([C@@H]2C[C@H]2NC2CCOCC2)c1 [Example 44, hydrochloride] only.
Out: > 100 µM
